Where do these numbers come from? They come from patent US20250340552A1.

# experimental target: Cbl-B (Homo sapiens, UniProt Q13191)
# Construct: MSD-Based Assay for Degradation of Cbl-B in THP-1 Cells; endogenous in cells; host or cells: THP-1 (title) / Jurkat (protocol text)
# Sequence (Q13191 whole entry): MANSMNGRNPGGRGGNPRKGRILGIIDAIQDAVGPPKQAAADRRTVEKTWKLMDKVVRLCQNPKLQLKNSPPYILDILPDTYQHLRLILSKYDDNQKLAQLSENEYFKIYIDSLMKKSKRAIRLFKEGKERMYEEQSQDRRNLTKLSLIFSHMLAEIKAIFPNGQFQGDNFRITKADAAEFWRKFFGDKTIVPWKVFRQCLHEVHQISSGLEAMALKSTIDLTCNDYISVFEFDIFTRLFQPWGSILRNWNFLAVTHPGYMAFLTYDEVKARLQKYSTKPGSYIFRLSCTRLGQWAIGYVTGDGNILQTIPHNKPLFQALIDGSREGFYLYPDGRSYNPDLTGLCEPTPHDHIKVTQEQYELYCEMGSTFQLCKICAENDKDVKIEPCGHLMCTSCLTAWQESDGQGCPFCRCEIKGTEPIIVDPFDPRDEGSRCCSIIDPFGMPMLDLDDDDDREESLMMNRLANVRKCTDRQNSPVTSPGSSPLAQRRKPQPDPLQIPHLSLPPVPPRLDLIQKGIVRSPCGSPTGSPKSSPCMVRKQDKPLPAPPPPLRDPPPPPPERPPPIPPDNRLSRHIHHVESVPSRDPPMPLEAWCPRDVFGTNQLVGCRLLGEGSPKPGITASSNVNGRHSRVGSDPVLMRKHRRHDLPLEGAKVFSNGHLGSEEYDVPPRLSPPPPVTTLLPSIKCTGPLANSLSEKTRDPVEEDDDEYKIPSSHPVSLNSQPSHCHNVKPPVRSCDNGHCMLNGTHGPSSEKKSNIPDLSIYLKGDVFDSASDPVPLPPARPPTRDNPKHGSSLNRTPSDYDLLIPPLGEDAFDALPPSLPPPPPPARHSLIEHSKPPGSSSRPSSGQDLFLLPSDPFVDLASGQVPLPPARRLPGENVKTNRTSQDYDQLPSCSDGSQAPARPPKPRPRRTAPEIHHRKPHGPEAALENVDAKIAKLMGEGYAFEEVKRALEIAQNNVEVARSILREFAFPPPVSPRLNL
# test summary: MSD-based assay for degradation of Cbl-B in THP-1 cells
# Type: cell-based
# test conditions: Cbl-B degradation, Jurkat cells seeded (heading: THP-1 cells), 24 hours incubation, MSD readout; read-out: Dmax
reported property: Dmax

Give Dmax for the following molecule: CN(CCOC1CCN(Cc2cc(C(F)(F)F)c3cn(-c4cccc([C@H](c5nncn5C)C5CCC5)c4)c(=O)n3c2)CC1)C(=O)c1ccc(N2CCN(c3cccc4c3C(=O)N(C3CCC(=O)NC3=O)C4=O)CC2)cc1 (stereo partly drawn)
< 30%

Supply recorded Dmax for "Cn1cnnc1CC1(c2cccc(-n3cc4c(C(F)(F)F)cc(CN5CCC(CC(=O)N6CCC(CN7CCN(c8ccc9c(c8)CN([C@@H]8CCC(=O)NC8=O)C9=O)CC7)CC6)CC5)cn4c3=O)c2)COC1" here.
> 70%

Recall and state the measured Dmax for "CO[C@H]1C[C@](c2cccc(-n3cc4c(C(F)(F)F)cc(CN5CCC(OCCOCc6ccc(CN7CCN(c8ccc9c(c8)CN([C@H]8CCC(=O)NC8=O)C9=O)CC7)cc6)CC5)cn4c3=O)c2)(c2nncn2C)C1" .
> 70%

Given the molecule Cn1cnnc1[C@@H](c1cccc(-n2cc3c(C(F)(F)F)cc(CN4CCC(OCc5ccc(C(=O)N6CCN(c7ccc8c(c7)CN([C@H]7CCC(=O)NC7=O)C8=O)CC6)cc5)CC4)cn3c2=O)c1)C1CCC1 (single isomer, unassigned) , write its reported Dmax.
> 70%

Complete the entry with Dmax for Cn1cnnc1[C@@H](c1cccc(-n2cc3c(C(F)(F)F)cc(CN4CCC(N5CCN(c6ccc7c(c6)CN([C@H]6CCC(=O)NC6=O)C7=O)CC5)CC4)cn3c2=O)c1)C1CCC1 (single isomer, unassigned)
< 30%

Give recorded Dmax. Cn1cnnc1[C@H](c1cccc(-n2cc3c(C(F)(F)F)cc(CN4CCC(OCCOCc5ccc(COCCNc6cccc7c6C(=O)N(C6CCC(=O)NC6=O)C7=O)cc5)CC4)cn3c2=O)c1)C1CCC1 (single isomer, unassigned)
50 to 70%

Given "CN(CCOC1CCN(Cc2cc(C(F)(F)F)c3cn(-c4cccc([C@H](c5nncn5C)C5CCC5)c4)c(=O)n3c2)CC1)C(=O)c1ccc(N2CCC(c3ccc4c(c3)CN([C@@H]3CCC(=O)NC3=O)C4=O)CC2)cc1" , respond with its Dmax.
50 to 70%

Please give the documented Dmax of Cn1cnnc1[C@@H](c1cccc(-n2cc3c(C(F)(F)F)cc(CN4CCC(COCc5ccc(CN6CCN(c7cccc8c7C(=O)N(C7CCC(=O)NC7=O)C8=O)CC6)cc5)CC4)cn3c2=O)c1)C1CCC1 (stereo partly drawn)
< 30%

Output measured Dmax for this item: Cn1cnnc1[C@@H](c1cccc(-n2cc3c(C(F)(F)F)cc(CN4CCC(O[C@H]5CCCN(C(=O)c6ccc(N7CCN(c8ccc9c(c8)CN([C@@H]8CCC(=O)NC8=O)C9=O)CC7)cc6)C5)CC4)cn3c2=O)c1)C1CCC1 (single isomer, unassigned)
30 to 50%

Identify measured Dmax associated with Cn1cnnc1[C@@H](c1cccc(-n2cc3c(C(F)(F)F)cc(CN4CCC[C@H](OC5CCN(C(=O)c6ccc(N7CCN(c8ccc9c(c8)CN([C@@H]8CCC(=O)NC8=O)C9=O)CC7)cc6)CC5)C4)cn3c2=O)c1)C1CCC1 (single isomer, unassigned)
50 to 70%

Provide only the value of recorded Dmax for "CO[C@H]1C[C@@](c2cccc(-n3cc4c(C(F)(F)F)cc(CN5CCC(CN(C)C(=O)c6ccc(N7CCN(c8ccc9c(c8)CN([C@H]8CCC(=O)NC8=O)C9=O)CC7)cc6)CC5)cn4c3=O)c2)(c2nncn2C)C1"
30 to 50%

Complete the entry with Dmax for "CO[C@H]1C[C@](c2cccc(-n3cc4c(C(F)(F)F)cc(CN5CCC(OCCN6CCC(CN7CCN(c8ccc9c(c8)CN([C@@H]8CCC(=O)NC8=O)C9=O)CC7)CC6)CC5)cn4c3=O)c2)(c2nncn2C)C1"
30 to 50%
